Entries and their percent blockade of GAL3-ITGb3 interaction
Target: T1, Human GAL3 protein (TrueBinding, QCB200349 / QCB200352; R&D Systems, 8259-GA) (human, UniProt P17931 2-250)
T1 construct: also called human galectin-3
T1 sequence (P17931 2-250 limits assumed): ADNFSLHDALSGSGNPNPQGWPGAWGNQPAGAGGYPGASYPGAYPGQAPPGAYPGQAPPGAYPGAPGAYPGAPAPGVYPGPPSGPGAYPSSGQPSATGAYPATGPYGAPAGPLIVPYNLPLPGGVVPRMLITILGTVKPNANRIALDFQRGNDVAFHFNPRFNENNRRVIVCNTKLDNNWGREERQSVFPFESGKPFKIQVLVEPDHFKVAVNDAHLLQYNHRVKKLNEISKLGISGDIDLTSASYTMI
Test: blocking ELISA (GAL3 coated; antibody + biotinylated ITGb3)
measure: percent blockade of GAL3-ITGb3 interaction

20D11.2C6 (antibody, V domains shown) VH: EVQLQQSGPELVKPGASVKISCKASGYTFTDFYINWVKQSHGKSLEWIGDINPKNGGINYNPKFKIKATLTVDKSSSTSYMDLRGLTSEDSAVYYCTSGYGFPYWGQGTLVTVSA VL: DIQMNQSPSSLSASLGDTITITCRASQNIYIWLSWYQQKPGNIPKLLIYKASNLHTGVPSRFSGSGSGTDFTLTISTLQPEDIATYFCLQGQSYPLTFGAGTKLEMK | > 90%
F846C.1F5 (antibody, V domains shown, also called 846.1F5) VH: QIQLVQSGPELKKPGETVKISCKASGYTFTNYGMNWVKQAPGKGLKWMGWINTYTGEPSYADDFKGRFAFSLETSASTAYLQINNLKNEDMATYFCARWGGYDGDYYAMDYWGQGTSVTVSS VL: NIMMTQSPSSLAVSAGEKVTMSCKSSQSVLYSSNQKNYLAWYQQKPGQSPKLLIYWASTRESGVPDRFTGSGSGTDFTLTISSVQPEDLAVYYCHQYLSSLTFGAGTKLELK | > 90%
F847C.12F12 (antibody, V domains shown, anti-Gal3 antibody; also called 847.12F12; 84712F12) VH: QIQLVQSGPELKKPGETVKISCKASGYTFTNYGMNWVKQAPGKGLKWMGWINTYTGEPTYVDDFKGRFAFSLETSASTAYLRINNLKNEDTATYFCAKFGNYVGAMDYWGQGTSVTVSS VL: DIQVIQSPSSLSASLGDTITITCHASQNINVWLSWYQQKPGNIPKLLIYKASNLHTGVPSRFSGSGSGTGFTLTISSLQPEDIATYYCQQGQSYPYTFGGGTKLELK | > 90%
